Reference source for all entries: patent US8735553

biological target: P3Z chimeric PD-1 receptor (human); experiment: cell-based or functional assay
Sequence (chain, as listed by the source mutant limits assumed): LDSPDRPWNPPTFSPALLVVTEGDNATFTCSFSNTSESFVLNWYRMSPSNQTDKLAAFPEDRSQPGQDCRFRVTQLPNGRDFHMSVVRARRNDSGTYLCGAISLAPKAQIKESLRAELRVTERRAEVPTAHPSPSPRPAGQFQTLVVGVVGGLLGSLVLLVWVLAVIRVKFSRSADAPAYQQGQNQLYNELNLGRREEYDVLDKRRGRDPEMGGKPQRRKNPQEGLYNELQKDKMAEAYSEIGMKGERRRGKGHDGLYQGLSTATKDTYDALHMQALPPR
property: IL-2 release in HuT78/P3Z, Max inhibition (%)
Provide only the numeric value, understood in %.

**Query** Value lookup for IL-2 release in HuT78/P3Z, Max inhibition; key = Fab hu317-2_M82L / hu317-1_Vκ (Fab, V domains shown) VH: QVQLQESGPGLVKPSETLSLTCTVSGFSLTSYGVHWIRQPPGKGLEWLGVIWAGGSTNYNPSLKSRLTISKDNSKSQVSLKLSSVTAADTAVYYCARAYGNYWYIDVWGQGTTVTVSS VL: DIVMTQSPDSLAVSLGERATINCKASQSVSNDVAWYQQKPGQPPKLLINYAFHRFTGVPDRFSGSGYGTDFTLTISSLQAEDVAVYYCHQAYSSPYTFGGGTKLEIK
**Result** 98.5
